Test: melting temperature; fluorescence melt of hairpins on a sequencing array, two-state fit, raised by 9.35 °C to match UV melts
Details: sodium 0.088 M
Decide using Tm: a value greater than or equal to 50 °C is Y, a smaller one is N.

entry_sequence="GATCCCGCGGGGGATC ((((((....))))))" discrete_label=Y
entry_sequence="GTCAATGCGAAAGCAGAC (((..(((....))))))" discrete_label=N
entry_sequence="CGAATCGGAAACGATCG (((.(((....))))))" discrete_label=N
entry_sequence="GATCCTGCCGAGGATC ((((((....))))))" discrete_label=Y
entry_sequence="GATCCCACCGGGATC ((((((...))))))" discrete_label=Y
entry_sequence="GACGAACCGAAAGGTGTC (((..(((....))))))" discrete_label=N
entry_sequence="GAGTCTGGAAACGGACTC (((((.(....).)))))" discrete_label=Y
entry_sequence="GATCCTGCACAGGATC ((((((....))))))" discrete_label=Y
entry_sequence="GATCACGACTGTGATC ((((((....))))))" discrete_label=Y
entry_sequence="GGGTCCGAAAGGATGCCC ((((((....)))..)))" discrete_label=N
entry_sequence="GACATGGGAAACCGTGTC ((((.((....)).))))" discrete_label=Y
entry_sequence="GCTGTGCGAAAGCCCAGC ((((.((....)).))))" discrete_label=Y
entry_sequence="GATCGGGAACCCGATC ((((((....))))))" discrete_label=Y
entry_sequence="GCAGTGCGAAAGCAACGC ((..(((....)))..))" discrete_label=Y
entry_sequence="GGTCTCGAAAGAGAGACC ((((((....)))..)))" discrete_label=Y
entry_sequence="GTATGCGAAAGCAATTAC ((((((....)))..)))" discrete_label=N
entry_sequence="GATCAATAAATTGATC ((((((....))))))" discrete_label=N
entry_sequence="GATCGCATTGGCGATC ((((((....))))))" discrete_label=Y
entry_sequence="GATCGTAATACGATC ((((((...))))))" discrete_label=Y
entry_sequence="GATTCCGAAAGGAAAATC ((((((....)))..)))" discrete_label=N
entry_sequence="GATCGTACCAACGATC ((((((....))))))" discrete_label=Y

* * *

Assay: folding enthalpy; higher = less favourable; fluorescence melt of hairpins on a sequencing array, two-state fit
Conditions: sodium 0.088 M
VALUE_KIND: folding enthalpy

entry_sequence="GGAGCGGCGAAAGCCTCC (((..(((....))))))" value_measured="-13.8 kcal/mol"
entry_sequence="CGATCGGAAACGAGTCG ((((((....))).)))" value_measured="-24.7 kcal/mol"
entry_sequence="GTGCGTGGAAACACGTAC ((.((((....)))).))" value_measured="-32.8 kcal/mol"
entry_sequence="GACAAGAAATTGTC (((((....)))))" value_measured="-17.2 kcal/mol"
entry_sequence="GTATGTCGAAAGACTTAC (((.(((....))).)))" value_measured="-25.1 kcal/mol"
entry_sequence="GCGGTCTCCGC ((((...))))" value_measured="-29.1 kcal/mol"
entry_sequence="GATCATCGGATGATC ((((((...))))))" value_measured="-36.9 kcal/mol"
entry_sequence="GATCTCTCCCGAGATC ((((((....))))))" value_measured="-41.2 kcal/mol"
entry_sequence="GATCAACCCATTGATC ((((((....))))))" value_measured="-31.8 kcal/mol"
entry_sequence="GTTCTGGGAAACTAGGAC ((.((.(....).)).))" value_measured="-9.14 kcal/mol"
entry_sequence="TCGCAGAAATGCGA (((((....)))))" value_measured="-17.1 kcal/mol"
entry_sequence="GTATCGCGAAAGCGGTAC (((.(((....))).)))" value_measured="-29.2 kcal/mol"
entry_sequence="GATCCTAACCAGGATC ((((((....))))))" value_measured="-32.3 kcal/mol"
entry_sequence="GCGTAGCGAAAGCATCGC (((..((....))..)))" value_measured="-15.4 kcal/mol"
entry_sequence="GATCAGGTTACTGATC ((((((....))))))" value_measured="-38.2 kcal/mol"
entry_sequence="GTAACCGAAAGGTACTAC ((((((....)))..)))" value_measured="-16.9 kcal/mol"
entry_sequence="GCTGAGCGAAAGCTATGC ((..(((....)))..))" value_measured="-17.4 kcal/mol"
entry_sequence="GGACCCACGAAAGTGTCC (((..(((....))))))" value_measured="-14.4 kcal/mol"
entry_sequence="GATCAATAGTTGATC ((((((...))))))" value_measured="-26.2 kcal/mol"
entry_sequence="GGGTCAGGAAACTAACCC ((((.((....)).))))" value_measured="-25.4 kcal/mol"
entry_sequence="GATCAACGGTTGATC ((((((...))))))" value_measured="-40.3 kcal/mol"
entry_sequence="GTAACGGCGAAAGCCTAC (((..(((....))))))" value_measured="-9.07 kcal/mol"
entry_sequence="GGTATAACGAAAGTTACC (((..(((....))))))" value_measured="-13.7 kcal/mol"
entry_sequence="GATCAGAGAACTGATC ((((((....))))))" value_measured="-30.5 kcal/mol"
entry_sequence="GTGGCTGGAAACAGCTAC ((.((((....)))).))" value_measured="-29.3 kcal/mol"
entry_sequence="GTCCTCGAAAGAGCTGAC ((((((....)))..)))" value_measured="-12.4 kcal/mol"
entry_sequence="GATCCCAAGAGGGATC ((((((....))))))" value_measured="-33.9 kcal/mol"
entry_sequence="GTACCTGGAAACAGGCAC ((.((((....)))).))" value_measured="-22.1 kcal/mol"
entry_sequence="GTAGCCGAAAGGCAATAC ((((((....)))..)))" value_measured="-9.85 kcal/mol"
entry_sequence="GATCGGCGGGCCGATC ((((((....))))))" value_measured="-38.9 kcal/mol"
entry_sequence="GTCTTACGAAAGTATGAC (((.(((....))).)))" value_measured="-30.9 kcal/mol"
entry_sequence="GACGAGGGAAACCTCATC ((.((((....)))).))" value_measured="-20.3 kcal/mol"
entry_sequence="GTACCCGAAAGGGGATAC ((((((....)))..)))" value_measured="-11.9 kcal/mol"
entry_sequence="GGGAACGAAAGTTATCCC ((((((....)))..)))" value_measured="-23.3 kcal/mol"
entry_sequence="GGTGGCGGAAACGTCGCC ((.(.((....)).).))" value_measured="-39.9 kcal/mol"
entry_sequence="GGTAACGGAAACGTTGCC ((.((((....)))).))" value_measured="-50.5 kcal/mol"
entry_sequence="GATCTGTACACAGATC ((((((....))))))" value_measured="-37.4 kcal/mol"
entry_sequence="GCACAGGCGAAAGCCTGC (((..(((....))))))" value_measured="-6.09 kcal/mol"
entry_sequence="GATCTCACCCGAGATC ((((((....))))))" value_measured="-39.5 kcal/mol"
entry_sequence="GTCGGCGCGAAAGCGGAC (((..(((....))))))" value_measured="-13.8 kcal/mol"
entry_sequence="GTGTAACGAAAGTTGCAC (((.(((....))).)))" value_measured="-33 kcal/mol"
entry_sequence="GGTAGCGAAAGCTACACC ((((((....)))..)))" value_measured="-9.32 kcal/mol"
entry_sequence="GCTAATACGAAAGTAAGC (((..(((....))))))" value_measured="-14.1 kcal/mol"
entry_sequence="GTTAGGGGAAACCCCAAC (((.(((....))).)))" value_measured="-19 kcal/mol"
entry_sequence="GTCAATGGAAACACTGAC ((((.((....)).))))" value_measured="-22.1 kcal/mol"
entry_sequence="GTTCTGACGAAAGTCAAC (((..(((....))))))" value_measured="-8.85 kcal/mol"
entry_sequence="GCGACTGGAAACAGTCAC (.(((((....))))).)" value_measured="-14.4 kcal/mol"
entry_sequence="CGCGGACAACTCCGCG ((((((....))))))" value_measured="-31.9 kcal/mol"
entry_sequence="GAGTATGGAAACATGCTC (((.(((....))).)))" value_measured="-34.1 kcal/mol"
entry_sequence="GGGTGTGGAAACACACTC (.(((((....))))).)" value_measured="-23.5 kcal/mol"

* * *

# Tm annotations
Assay: melting temperature; fluorescence melt of hairpins on a sequencing array, two-state fit, raised by 9.35 °C to match UV melts
Settings: sodium 0.088 M
VALUE_KIND: Tm (°C)

entry_sequence="GCCTGTGGAAACGCAGGC (((((.(....).)))))" value_measured=59.9
entry_sequence="GCTTCCGAAAGGAACAGC ((((((....)))..)))" value_measured=38.3
entry_sequence="GGACGCGAAAGCGCCTCC ((((((....)))..)))" value_measured=60.2
entry_sequence="GGCAGCGAAAGCTTAGCC ((((((....)))..)))" value_measured=51.7
entry_sequence="CGTCCGGAAACGGCACG ((((((....))).)))" value_measured=47.6
entry_sequence="GATCTCACCTGAGATC ((((((....))))))" value_measured=53.5
entry_sequence="GTATATCGAAAGATTTAC (((.(((....))).)))" value_measured=36.4
entry_sequence="GATCGATCGTTCGATC ((((((....))))))" value_measured=53.5
entry_sequence="GATTGCCGAAAGGCGATC (((.(((....))).)))" value_measured=61.9
entry_sequence="GCATGAGCGAAAGCTTGC (((..(((....))))))" value_measured=45.6
entry_sequence="GGCTACGAAAGTAGTGCC ((((((....)))..)))" value_measured=46.7
entry_sequence="GAACGTGGAAACACGCTC ((.((((....)))).))" value_measured=44
